Hello, the source for this data is patent US5633255A, in case you need it.

Task for the reader: assign each of the following compounds its reported change in vivo at 100 mg/kg.
system: Zymosan Pleurisy; test: pleurisy model with Zymosan in rats; format: in vivo, rat (male Sprague Dawley); conditions: po; rat, 100 mg/kg p.o. one hour before Zymosan (10 mg intrapleural), exudate measured 1 hour later; read-out: Zymosan Pleurisy volume pleural exudate
Structures can show the parent of a compound that is named as a salt.
Provide the measurement as a number trailed by its unit.

Here CCCCn1c(=O)c(N)nc2ccccc21 [Compound 8] was tested on Zymosan Pleurisy, and its change in vivo at 100 mg/kg came to 4%

CCCn1c(=O)c(NC)nc2ccccc21.Cl [Compound 6, hydrochloride] on Zymosan Pleurisy gives change in vivo at 100 mg/kg = -27%

Reading of change in vivo at 100 mg/kg for C=CCn1c(=O)c(N)nc2ccccc21 [Compound 11] with Zymosan Pleurisy: -33%

Record C=CCn1c(=O)c(N(C)C)nc2ccccc21 [Compound 13] ; system Zymosan Pleurisy; change in vivo at 100 mg/kg = -43%

Entry CCCCn1c(=O)c(NC)nc2ccccc21 [Compound 9] : change in vivo at 100 mg/kg on Zymosan Pleurisy = -29%

Value sought: change in vivo at 100 mg/kg, system Zymosan Pleurisy, item CCCn1c(=O)c(N)nc2ccccc21.Cl [Compound 5, hydrochloride] . Result: -21%

Assay Zymosan Pleurisy, sample CNc1nc2ccccc2n(CC=C(C)C)c1=O [Compound 15] , change in vivo at 100 mg/kg read: -5%

The observed change in vivo at 100 mg/kg for C=CCn1c(=O)c(NC)nc2ccccc21 [Compound 12] when tested with Zymosan Pleurisy stands at -31%

Let me check: CCCn1c(=O)c(N(C)C)nc2ccccc21.Cl [Compound 7, hydrochloride] , system Zymosan Pleurisy, measured change in vivo at 100 mg/kg is -44%

The compound CC(C)=CCn1c(=O)c(N)nc2ccccc21 [Compound 14, hydrochloride] , when measured on Zymosan Pleurisy, yielded change in vivo at 100 mg/kg of -14%

Per the reported Zymosan Pleurisy data, CCCCn1c(=O)c(N(C)C)nc2ccccc21 [Compound 10] has change in vivo at 100 mg/kg of -47%

----------
tested on: trachea (contraction induced by histamine); experiment: antagonism of the effect of histamine (contractions of isolated guinea pig trachea); type: cell-based; settings: Cavia porcellus, 5 min, histamine dihydrochloride 10 μg/ml, 5 min contact, 37° C.
Structures can show the parent of a compound that is named as a salt.
measured endpoint: log10 of IC50 (log10 of the value in µg/mL)
Scale: decimal log of IC50, IC50 in µg/mL.

Quick note, log10 of IC50 for CCCCn1c(=O)c(N)nc2ccccc21 [Compound 8] landed at 0.23

Lab note: measured log10 of IC50 of C=CCn1c(=O)c(NC)nc2ccccc21 [Compound 12] was 0.04

Item: CCCn1c(=O)c(N)nc2ccccc21.Cl [Compound 5] | log10 of IC50: 0.66

C=CCn1c(=O)c(N)nc2ccccc21 [Compound 11] yielded log10 of IC50 of 0.77

Measured log10 of IC50 of CC(C)=CCn1c(=O)c(N(C)C)nc2ccccc21 [Compound 16] : 1.13

Lab book: log10 of IC50 of CC(C)=CCn1c(=O)c(N)nc2ccccc21 [Compound 14, hydrochloride] noted as 0.41

Please fill in: log10 of IC50 reported for CCCCn1c(=O)c(NC)nc2ccccc21 [Compound 9] = -0.26

What the record says about CCCn1c(=O)c(NC)nc2ccccc21.Cl [Compound 6] : log10 of IC50 is 0.81

Notebook: CNc1nc2ccccc2n(CC=C(C)C)c1=O [Compound 15] , log10 of IC50 read as -0.19

Input CCCn1c(=O)c(N(C)C)nc2ccccc21.Cl [Compound 7] . Output log10 of IC50: 1.03

So, C=CCn1c(=O)c(N(C)C)nc2ccccc21 [Compound 13] ? Its log10 of IC50 was 0.93

Given item Cn1c(=O)c2[nH]cnc2n(C)c1=O [Theophylline, reference compound] , the value recorded as its log10 of IC50 is 1.48

# log10 of IC50 (compound: CCCCn1c(=O)c(N(C)C)nc2ccccc21 [Compound 10] ) is 0.76

Per the record, CC(C)(O)CCn1c(=O)c(N)nc2ccccc21 [Compound 17, hydrochloride] has log10 of IC50 of 1.36
